tested on: rodent lifetime carcinogenesis bioassay, tumor incidence TD50; test: carcinogenic potency in animals, long-term in vivo studies, CPDB compilation (AID 1745844); conditions: rat; strain Charles River CD (Sprague-Dawley); females; in feed; site: mammary gland; lesion: malignant tumor; dosed 105 weeks; study length 105 weeks
Readout Type: TD50

Prompt: I'd like to know its TD50. The molecule in question is `CCNc1nc(Cl)nc(NC(C)(C)C#N)n1`
Completion: 6.33 mg/kg/day

---

system: rodent lifetime carcinogenesis bioassay, tumor incidence TD50; experiment: carcinogenic potency in animals, long-term in vivo studies, CPDB compilation (AID 1745844); settings: rat; strain Fischer 344; males; in feed; site: jejunum; lesion: carcinoma; dosed 104 weeks; study length 105 weeks
Readout Type: TD50

Prompt: I'd like to know its TD50. The compound in question is `OCC(CO)(CBr)CBr`
Completion: 5660 mg/kg/day

---

test system: rodent lifetime carcinogenesis bioassay, tumor incidence TD50; assay: carcinogenic potency in animals, long-term in vivo studies, CPDB compilation (AID 1745844); details: rat; strain Charles River CD (Sprague-Dawley); males; in feed; site: any site (literature study); lesion: benign tumor; dosed 104 weeks; study length 104 weeks
Readout Type: TD50

Prompt: I'd like to know its TD50. The molecule in question is `Cc1ccc(C)c(OCCCC(C)(C)C(=O)O)c1`
Completion: 196 mg/kg/day

---

system: rodent lifetime carcinogenesis bioassay, tumor incidence TD50; assay: carcinogenic potency in animals, long-term in vivo studies, CPDB compilation (AID 1745844); settings: rat; strain Sprague-Dawley; females; in feed; site: intestine; lesion: hemangioendothelial sarcoma; dosed 40 weeks; study length 59 weeks
Readout Type: TD50

Prompt: I'd like to know its TD50. The compound in question is `CC(=O)Nc1nnc(-c2ccc([N+](=O)[O-])o2)s1`
Completion: 18.6 mg/kg/day

---

tested on: rodent lifetime carcinogenesis bioassay, tumor incidence TD50; assay: carcinogenic potency in animals, long-term in vivo studies, CPDB compilation (AID 1745844); conditions: rat; strain F344/DuCrj; males; in drinking water; site: subcutaneous tissue; lesion: fibroma; dosed 99 weeks; study length 111 weeks
Readout Type: TD50 (mg/kg/day)
// units = mg/kg/day; emit number, no label

Prompt: I'd like to know its TD50. The compound in question is `CCN(N=O)C(N)=O`
Completion: 2.42

---

system: rodent lifetime carcinogenesis bioassay, tumor incidence TD50; assay: carcinogenic potency in animals, long-term in vivo studies, CPDB compilation (AID 1745844); conditions: rat; strain Fischer 344; females; in feed; site: liver + uterus + Zymbal's gland; lesion: hepatocellular carcinoma + neoplastic nodule + adenocarcinoma, NOS + carcinoma, NOS + squamous-cell carcinoma; dosed 78 weeks; study length 107 weeks
Readout Type: TD50
Number first, unit second: that is the form wanted.

Prompt: I'd like to know its TD50. The molecule in question is `CCn1c2ccccc2c2cc(N)ccc21`
Completion: 55.1 mg/kg/day

---

tested on: rodent lifetime carcinogenesis bioassay, tumor incidence TD50; assay: carcinogenic potency in animals, long-term in vivo studies, CPDB compilation (AID 1745844); settings: rat; strain Fischer 344; females; by gavage; site: liver; lesion: neoplastic nodule; dosed 130 weeks; study length 130 weeks
Readout Type: TD50

Prompt: I'd like to know its TD50. The compound in question is `CN(CCCO)N=O`
Completion: 3.48 mg/kg/day
